- TGT: human DNPH1 (Homo sapiens, UniProt O43598)
- Sequence (O43598 whole entry): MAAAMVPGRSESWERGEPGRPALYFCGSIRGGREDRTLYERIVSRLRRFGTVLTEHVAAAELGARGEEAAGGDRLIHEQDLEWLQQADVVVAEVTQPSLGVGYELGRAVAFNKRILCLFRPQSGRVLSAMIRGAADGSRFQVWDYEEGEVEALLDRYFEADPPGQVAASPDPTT
- ASSAY NOTES: Isothermal titration calorimetry with human DNPH1
- CONDITION LABEL: ITC, T = 298 K, pH 6.0, human DNPH1
QUANTITY MEASURED: -T∆S (kcal/mol)

O=P(O)(O)OC[C@H]1O[C@@H](n2cnc3c(NCc4ccco4)ncnc32)[C@H](O)[C@@H]1O [Compound 5, kinetin riboside 5’-monophosphate]
12.6

A: CC(C)=CCNc1ncnc2c1ncn2[C@@H]1O[C@H](COP(=O)(O)O)[C@@H](O)[C@H]1O [Compound 1]
B: O=P(O)(O)OC[C@H]1O[C@@H](n2cnc3c(NC4CCCC4)ncnc32)[C@H](O)[C@@H]1O [Compound 7]
Recorded -T∆S values differ for A and B ; which one is higher? State the label of the item chosen.
A
(A: 2.4 kcal/mol, B: -1.8 kcal/mol)
